- measurement.target: human RET on cells (MCF7/SRE-Luc; HEK293/hGFRα3/hRET/SRE-Luc; HEK293/hGFRα1/hRET/SRE-Luc) (human), P07949
- measurement.notes: cell-based or functional assay
Field: Internalization (% H4H8087P), HEK293/hGFRa1/hRET/SRE-Luc cells, 37 C. Provide a value for each of the binders that follow.
Give just the numeric value; % need not be written.

[ask] Provide Internalization (% H4H8087P), HEK293/hGFRa1/hRET/SRE-Luc cells, 37 C value for the following binder: H4H8062P (antibody, human IgG4, V domains shown) VH: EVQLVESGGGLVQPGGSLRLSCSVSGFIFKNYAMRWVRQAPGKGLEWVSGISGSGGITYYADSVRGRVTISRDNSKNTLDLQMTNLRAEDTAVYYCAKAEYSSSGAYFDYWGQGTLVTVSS VL: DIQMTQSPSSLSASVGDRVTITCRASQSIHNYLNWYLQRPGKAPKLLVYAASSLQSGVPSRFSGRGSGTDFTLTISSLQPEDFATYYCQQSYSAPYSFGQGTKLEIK
[reply] 44.9

[ask] Provide Internalization (% H4H8087P), HEK293/hGFRa1/hRET/SRE-Luc cells, 37 C value for the following binder: H4H8058P (antibody, human IgG4, V domains shown) VH: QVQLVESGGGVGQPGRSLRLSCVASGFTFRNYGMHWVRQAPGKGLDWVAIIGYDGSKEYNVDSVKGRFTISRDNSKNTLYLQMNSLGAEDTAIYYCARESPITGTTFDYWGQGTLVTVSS VL: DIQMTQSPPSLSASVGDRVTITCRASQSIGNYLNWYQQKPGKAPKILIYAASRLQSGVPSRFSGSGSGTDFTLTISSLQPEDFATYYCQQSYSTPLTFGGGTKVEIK
[reply] 42

[ask] Provide Internalization (% H4H8087P), HEK293/hGFRa1/hRET/SRE-Luc cells, 37 C value for the following binder: H4H8087P (antibody, human IgG4, V domains shown) VH: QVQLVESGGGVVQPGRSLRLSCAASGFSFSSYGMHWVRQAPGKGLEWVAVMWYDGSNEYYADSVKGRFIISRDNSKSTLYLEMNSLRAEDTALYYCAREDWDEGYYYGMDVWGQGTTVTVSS VL: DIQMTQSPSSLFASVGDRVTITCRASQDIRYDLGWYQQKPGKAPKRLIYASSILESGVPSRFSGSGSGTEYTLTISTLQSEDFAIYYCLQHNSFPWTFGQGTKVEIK
[reply] 100

[ask] Provide Internalization (% H4H8087P), HEK293/hGFRa1/hRET/SRE-Luc cells, 37 C value for the following binder: H4H8067P (antibody, human IgG4, V domains shown) VH: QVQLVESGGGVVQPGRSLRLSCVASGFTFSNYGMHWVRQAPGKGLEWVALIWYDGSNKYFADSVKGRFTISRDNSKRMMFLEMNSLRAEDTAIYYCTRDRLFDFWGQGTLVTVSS VL: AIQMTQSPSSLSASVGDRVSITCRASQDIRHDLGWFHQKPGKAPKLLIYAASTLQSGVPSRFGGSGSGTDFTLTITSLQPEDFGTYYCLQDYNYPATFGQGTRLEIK
[reply] 58.2

[ask] Provide Internalization (% H4H8087P), HEK293/hGFRa1/hRET/SRE-Luc cells, 37 C value for the following binder: H4H7086N (antibody, human IgG4, V domains shown) VH: QVQLVESGGGVVQPGRSLRLSCVVSGFTFSNYGMHWVRQGPGRGLEWLALIWYDGSDKYYAESVRGRFTISRDNSKNTVYLQMNSLRAEDTAMYYCTRDRIFDYWGQGTLVTVSS VL: AIQMTQSPSSLSASVGDRVTITCRASQDIRNDLGWYQHNPGKAPNLLIYAASTLQIGVPSRFRGSGSGTDFTLTISSLQPEDFATYYCLQDFDYPLSFGGGTKVEIR
[reply] 59
